biological target: UniProtKB P14416; assay: Binding affinity against human Dopamine receptor D2 in mouse LtK- cells using [3H]spiperone.
Recorded Ki for the following compounds
Give just the number in nM; leave the unit off.

QUERY: Note down Ki recorded for CCCN(CCC)C1CCc2cc(CCc3ccc(O)cc3)ccc2C1 (stereo not drawn)
RESULT: 316

QUERY: Input CCCN(CCC)C1CCc2cc(CN(C(=O)OC)c3ccc(OC)cc3)ccc2C1 (stereo not drawn) , output reported Ki.
RESULT: 794

QUERY: Name the recorded Ki of the item "CCCN(CCC)[C@H]1CCc2cc(CCc3ccc(Cl)cc3)ccc2C1" in your answer.
RESULT: 126

---

Below: a set of entries, each annotated with reported Ki.
target: D(3) dopamine receptor (Homo sapiens); experiment: Binding affinity against human Dopamine receptor D3 in Chinese hamster ovary cells using [3H]spiperone.
Sequence (P35462 whole entry): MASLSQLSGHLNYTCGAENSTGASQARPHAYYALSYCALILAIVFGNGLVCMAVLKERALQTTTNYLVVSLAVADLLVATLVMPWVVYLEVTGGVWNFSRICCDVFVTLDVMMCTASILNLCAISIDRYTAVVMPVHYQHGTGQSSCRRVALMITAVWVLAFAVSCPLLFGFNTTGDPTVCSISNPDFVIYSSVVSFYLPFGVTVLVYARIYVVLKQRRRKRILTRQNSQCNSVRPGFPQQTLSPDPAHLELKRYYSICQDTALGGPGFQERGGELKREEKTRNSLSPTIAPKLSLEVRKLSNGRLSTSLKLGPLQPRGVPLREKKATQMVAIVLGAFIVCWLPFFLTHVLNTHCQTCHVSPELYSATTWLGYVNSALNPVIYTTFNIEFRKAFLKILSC
Reply with the number and its unit after it.

Worked cases, answers included:
- compound: "CCCN(CCC)[C@@H]1CCc2c(ccc(C(O)Cc3ccc(Cl)cc3)c2OC)C1 (stereo in doubt)"
  target: "D(3) dopamine receptor (Homo sapiens)"
  Ki: "50.1 nM"
- compound: "CCCN(CCC)C1CCc2cc(CCc3ccc(C(C)=O)cc3)ccc2C1 (stereo not given)"
  target: "D(3) dopamine receptor (Homo sapiens)"
  Ki: "3.98 nM"
- compound: "CCCN(CCC)[C@@H]1CCc2c(ccc(CCc3ccc(NS(C)(=O)=O)cc3)c2OC)C1"
  target: "D(3) dopamine receptor (Homo sapiens)"
  Ki: "501 nM"
- compound: "CCCN(CCC)[C@@H]1CCc2cc(CCc3ccc(Cl)cc3)ccc2C1"
  target: "D(3) dopamine receptor (Homo sapiens)"
  Ki: "3.98 nM"
- compound: "CCCN(CCC)C1CCc2cc(CCc3ccc(/C(C)=N\\O)cc3)ccc2C1 (stereo not given)"
  target: "D(3) dopamine receptor (Homo sapiens)"
  Ki: "2 nM"
- compound: "CCCN(CCC)[C@@H]1CCc2cc(CCc3ccc(C(C)=O)cc3)ccc2C1"
  target: "D(3) dopamine receptor (Homo sapiens)"
  Ki: "3.16 nM"
- compound: "CCCN(CCC)C1CCc2cc(CCc3ccc(C(N)=O)cc3)ccc2C1 (stereo not given)"
  target: "D(3) dopamine receptor (Homo sapiens)"
  Ki: "631 nM"
- compound: "CCCN(CCC)C1CCc2cc(CCc3ccc(O)cc3)ccc2C1 (stereo not given)"
  target: "D(3) dopamine receptor (Homo sapiens)"
  Ki: "12.6 nM"
- compound: "CCCN(CCC)[C@@H]1CCc2c(ccc(C(O)Cc3ccc(Cl)cc3)c2OC)[C@@H]1C (stereo not given in full)"
  target: "D(3) dopamine receptor (Homo sapiens)"
  Ki: "25.1 nM"

QUERY: Quote Ki reported for "CCCN(CCC)[C@@H]1CCc2c(OC)cccc2[C@@H]1C" please.
RESULT: 12.6 nM

---

target: D(3) dopamine receptor (Homo sapiens); assay: Binding affinity against human Dopamine receptor D3 in Chinese hamster ovary cells using [3H]spiperone.
pKi: −log10 of the molar value.
Is pKi at least 8? Then satisfied. If not, not satisfied.

- compound: "CCCN(CCC)C1CCc2cc(CS(=O)(=O)c3ccc(OC)cc3)ccc2C1 (stereo unspecified)"
  group: "satisfied"
- compound: "CCCN(CCC)C1CCc2cc(CCc3ccc(C(=O)OCC)cc3)ccc2C1 (stereo unspecified)"
  group: "satisfied"
- compound: "CCCN(CCC)C1CCc2cc(CSc3ccc(OC)cc3)ccc2C1 (stereo unspecified)"
  group: "satisfied"
- compound: "CCCN(CCC)C1CCc2cc(CN(C(N)=O)c3ccc(OC)cc3)ccc2C1 (stereo unspecified)"
  group: "not satisfied"
- compound: "CCCN(CCC)[C@@H]1CCc2cc(CS(=O)(=O)c3ccc(I)cc3)ccc2C1"
  group: "satisfied"
- compound: "CCCN(CCC)[C@@H]1CCc2c(ccc(C(O)Cc3ccccc3)c2OC)C1 (stereo partly specified)"
  group: "not satisfied"

QUERY: Please tell me: is the compound CCCN(CCC)C1CCc2cc(CCc3ccccc3)ccc2C1 (stereo unspecified) at or over 8 in terms of pKi?
RESULT: satisfied

QUERY: Given the entry CCCN(CCC)C1CCc2cc(CCc3ccc(S(C)(=O)=O)cc3)ccc2C1 (stereo unspecified) , answer whether its pKi meets or surpasses 8.
RESULT: not satisfied

QUERY: Evaluate "CCCN(CCC)[C@@H]1CCc2c(ccc(CCc3ccccc3)c2OC)C1" : pKi at minimum 8?
RESULT: not satisfied

---

Measured pKi values are reported for all entries that follow.
target: D(2) dopamine receptor (Homo sapiens); experiment: Binding affinity against human Dopamine receptor D2 in mouse LtK- cells using [3H]spiperone.
Sequence (P14416 whole entry): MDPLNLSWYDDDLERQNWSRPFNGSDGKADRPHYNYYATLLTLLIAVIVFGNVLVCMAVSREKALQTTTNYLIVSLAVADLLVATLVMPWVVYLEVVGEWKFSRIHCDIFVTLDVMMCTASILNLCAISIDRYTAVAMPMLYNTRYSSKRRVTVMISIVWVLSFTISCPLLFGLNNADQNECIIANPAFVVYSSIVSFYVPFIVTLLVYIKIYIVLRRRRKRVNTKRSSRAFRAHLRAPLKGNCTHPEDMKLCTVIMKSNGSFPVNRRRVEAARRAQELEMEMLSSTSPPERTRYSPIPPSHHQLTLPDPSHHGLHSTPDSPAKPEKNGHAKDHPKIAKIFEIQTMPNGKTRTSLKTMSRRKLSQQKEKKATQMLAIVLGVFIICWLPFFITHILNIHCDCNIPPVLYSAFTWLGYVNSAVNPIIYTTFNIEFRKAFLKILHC
# log scale: pKi equals minus log10 of the concentration in mol/L

- molecule: "CCCN(CCC)[C@@H]1CCc2c(ccc(C(O)Cc3ccc(Cl)cc3)c2OC)C1 (stereo in doubt)"
  pKi: 5.90
- molecule: "CCCN(CCC)C1CCc2cc(CCc3ccc(OC)cc3)ccc2C1 (stereo unspecified)"
  pKi: 6.60
- molecule: "CCCN(CCC)[C@@H]1CCc2cc(CCc3ccc(C(C)=O)cc3)ccc2C1"
  pKi: 6.10
- molecule: "CCCN(CCC)C1CCc2cc(CCc3ccc(C(C)=O)cc3)ccc2C1 (stereo unspecified)"
  pKi: 6.00
- molecule: "CCCN(CCC)[C@@H]1CCc2c(ccc(C(O)Cc3ccccc3)c2OC)C1 (stereo partly specified)"
  pKi: 6.00

QUERY: Report value: pKi, system: D(2) dopamine receptor (Homo sapiens), molecule: "CCCN(CCC)[C@@H]1CCc2cc(CCc3ccc(/C(C)=N\O)cc3)ccc2C1"
RESULT: 6.50

QUERY: Specify pKi for "CCCN(CCC)[C@@H]1CCc2cc(CCc3ccc(Cl)cc3)ccc2C1" , system D(2) dopamine receptor (Homo sapiens).
RESULT: 6.40

---

target: UniProt P35462; experiment: Binding affinity against human Dopamine receptor D3 in Chinese hamster ovary cells using [3H]spiperone.
assay_readout: Ki (nM)
Give your result in nM as a bare value.

Consider the following illustrative entries.
- compound: "CCCN(CCC)C1CCc2cc(CCc3ccc(OC)cc3)ccc2C1 (stereo not given)"
  Ki / nM: 3.16
- compound: "CCCN(CCC)[C@@H]1CCc2c(ccc(CCc3ccc(Cl)cc3)c2OC)C1"
  Ki / nM: 5.01
- compound: "CCCN(CCC)[C@@H]1CCc2cc(CS(=O)(=O)c3ccc(OC)cc3)ccc2C1"
  Ki / nM: 1.26
- compound: "CCCN(CCC)[C@@H]1CCc2c(ccc(C(O)Cc3ccc(Cl)c(Cl)c3)c2OC)C1 (stereo not given in full)"
  Ki / nM: 20

API: the following record is the query input.
QUERY: Return Ki (reported value) for this compound: "CCCN(CCC)[C@@H]1CCc2c(ccc(CCc3ccc(C(F)(F)F)cc3)c2OC)C1"
RESULT: 6.31

---

biological target: D(2) dopamine receptor (Homo sapiens); test: Binding affinity against human Dopamine receptor D2 in mouse LtK- cells using [3H]spiperone.; type: cell-based
assay_readout: pKi
A value of pKi is the negative decimal logarithm of a concentration given in moles per litre.

Consider the worked cases shown below.
- compound: "CCCN(CCC)[C@@H]1CCc2c(ccc(CCc3ccc(Cl)cc3)c2OC)C1"
  pKi: 6.90
- compound: "CCCN(CCC)[C@@H]1CCc2cc(CS(=O)(=O)c3ccc(I)cc3)ccc2C1"
  pKi: 6.70
- compound: "CCCN(CCC)C1CCc2cc(CN(C(C)=O)c3ccc(OC)cc3)ccc2C1 (centres undefined)"
  pKi: 6.20

QUERY: Give the reported value of pKi for this record: CCCN(CCC)C1CCc2cc(CCc3ccc(C(=O)OCC)cc3)ccc2C1 (centres undefined)
RESULT: 6.60

QUERY: Give the reported value of pKi for this record: "CCCN(CCC)[C@@H]1CCc2cc(CS(=O)(=O)c3ccc(OC)cc3)ccc2C1"
RESULT: 6.30

QUERY: Supply measured pKi of CCCN(CCC)C1CCc2cc(CSc3ccc(OC)cc3)ccc2C1 (centres undefined) in your reply.
RESULT: 6.70

QUERY: Tell me pKi reported for CCCN(CCC)C1CCc2cc(CN(C(N)=O)c3ccc(OC)cc3)ccc2C1 (centres undefined)
RESULT: 5.20

QUERY: Determine from records and report pKi for CCCN(CCC)[C@@H]1CCc2c(ccc(C(O)Cc3ccc(Cl)cc3)c2OC)C1 (single isomer, unassigned; isomer I)
RESULT: 6.50

QUERY: Supply reported pKi belonging to this compound: CCCN(CCC)[C@@H]1CCc2c(ccc(C(O)Cc3ccc(Cl)cc3)c2OC)[C@@H]1C (some centres undefined)
RESULT: 6.20

QUERY: Item CCCN(CCC)C1CCc2cc(CS(=O)(=O)c3ccc(OC)cc3)ccc2C1 (centres undefined) : provide pKi
RESULT: 6.20

QUERY: Report measured pKi; entry is "CCCN(CCC)[C@@H]1CCc2c(ccc(CCc3ccc(C(F)(F)F)cc3)c2OC)C1"
RESULT: 7.00
